Test system: BMX;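 also: KINOMEscan kinase panel screen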
Experimental conditions: concentration: 1 μM, replicates: in singlicate; n = 1
Mark 1.0 for %Inh under 10%, 0.0 if at or over.

Check out these entries, answers already filled in.
INSERT INTO results (compound, target, assigned_category) VALUES
  ('CCn1c(-c2cccnc2O)nc2cnccc21', 'BMX', 1.0),
  ('CCn1c(-c2ccccn2)nc2cnccc21', 'BMX', 0.0),
  ('Cc1cccc(-c2nc(Nc3cccc(C(N)=O)c3)c3ccccc3n2)n1', 'BMX', 1.0),
  ('Cc1ccc(-c2cc(-c3c[nH]nc3-c3ccccn3)ccn2)cc1', 'BMX', 0.0),
  ('Cn1ccc2ncnc(Oc3ccc(NC(=O)Nc4ccccc4)cc3)c21', 'BMX', 0.0),
  ('Cc1csc(-c2nc(Nc3ccncc3)c3ccccc3n2)n1', 'BMX', 0.0),
  ('Cc1ccc(NC(=O)Nc2cccc(Cl)c2)cc1-c1ccc(C(=O)Nc2ccncc2)cc1', 'BMX', 1.0),
  ('Nc1nc(-c2nccs2)c(-c2ccnc3ccccc23)s1', 'BMX', 1.0);

State whether 10% exceeds %Inh recorded for `Cl.NC(=O)c1cccc(Nc2nccc(Nc3ccc(Oc4cccc(Cl)c4)c(Cl)c3)n2)c1` .
0.0

Please determine if COc1cc2ncn(-c3cc(OCC4CCCO4)c(C(N)=O)s3)c2cc1OC (stereo not shown) is below 10% in terms of %Inh.
0.0
